All figures here come from patent US20080241904A1.

system: α-isomaltosylglucosaccharide-forming enzyme from Bacillus globisporus C9 strain; assay: Specificity of saccharide transferring reaction acceptor, enzyme of Strain C9; format: biochemical; parameters: key: −: no saccharide-transferred product was detected through transferring reaction to acceptor; ±: a saccharide-transferred product was detected in an amount of less than one percent through transfer reaction to acceptor; +: a saccharide-transferred product was detected in an amount of at least one percent but less than ten percent through transferring reaction to acceptor; ++: a saccharide-transferred product was detected in an amount of at least ten percent through transferring reaction to acceptor; conditions: 1.6% acceptor, 4% PINE-DEX #100 as donor, one unit/g donor, 30° C., pH 6.0, 24 hours; GLC or HPLC
result-type: Product of saccharide transferring reaction, Enzyme of Strain C9

{"columns": ["line-notation", "subject-of-test", "recorded-result"],
 "data": [
  ["O=C[C@@H](O)[C@@H](O)[C@H](O)[C@H](O)CO", "α-isomaltosylglucosaccharide-forming enzyme from Bacillus globisporus C9 strain", "−"]
]}

###

tested on: α-isomaltosylglucosaccharide-forming enzyme; experiment: Influence of metal ions on activity of α-isomaltosylglucosaccharide-forming enzyme (Strain C9); assay type: biochemical, Bacillus globisporus C9; settings: 1 mM; summary of Table 2
result-type: Effect on enzyme activity (in words)

See these solved cases before continuing.
{"columns": ["line-notation", "subject-of-test", "Effect on enzyme activity (in words)"],
 "data": [
  ["[Ca+2]", "α-isomaltosylglucosaccharide-forming enzyme", "activated"],
  ["[Hg+2]", "α-isomaltosylglucosaccharide-forming enzyme", "greatly inhibited"],
  ["[Ba+2]", "α-isomaltosylglucosaccharide-forming enzyme", "inhibited"],
  ["[Sr+2]", "α-isomaltosylglucosaccharide-forming enzyme", "inhibited"],
  ["O=C(O)CN(CCN(CC(=O)O)CC(=O)O)CC(=O)O", "α-isomaltosylglucosaccharide-forming enzyme", "greatly inhibited"],
  ["[Mn+2]", "α-isomaltosylglucosaccharide-forming enzyme", "activated"]
]}

Attention now shifts to the item below.
Item: "[Cu+2]" | Effect on enzyme activity (in words): greatly inhibited

###

test system: α-isomaltosylglucosaccharide-forming enzyme; assay: Influence of metal ions on enzyme activity, Experiment 4-2 (Strain C11); type: biochemical, Bacillus globisporus C11; settings: in the presence of 1 mM of each metal ion; None = 100
result-type: Relative activity

Item: "[Ca+2]" | Relative activity: 109%

Given item "[Co+2]" , the value recorded as its Relative activity is 96%

Lookup result for "[Zn+2]" ; measured Relative activity: 91%

Quick note, Relative activity for "[Hg+2]" landed at 4%

Notebook: "[Ba+2]" , Relative activity read as 65%

So, "[Al+3]" ? Its Relative activity was 100%

Quick note, Relative activity for "[Sr+2]" landed at 83%

Record summary for "[Fe+2]" : reported Relative activity = 100%

Relative activity reading for "O=C(O)CN(CCN(CC(=O)O)CC(=O)O)CC(=O)O" : 24%

// field: Relative activity; key: "[Pb+2]" ; value = 101%

According to the records, this compound "[Mn+2]" displays Relative activity of 142%

GET /value?item= "[Cu+2]" &field=Relative activity returns 23%

In plain terms, "[Ni+2]" has a documented Relative activity of 93%

###

tested on: α-isomaltosylglucosaccharide-forming enzyme from Bacillus globisporus C11; assay: Action of α-isomaltosylglucosaccharide-forming enzyme on saccharides as substrates (TLC), enzyme of Strain C11; assay type: biochemical; design: key: −: it showed no change; +: it showed a slight reduction of the color of substrate spot and the formation of other reaction product; ++: it showed a high reduction of the color of substrate spot and the formation of other reaction product; +++: it showed a substantial disappearance of the color of substrate spot and the formation of other reaction product; details: two units/g substrate, substrate 2% (w/v), 30° C., pH 6.0, 24 hours
result-type: Enzymatic action, Enzyme of Strain C11

Study these solved cases before continuing.
{"columns": ["compound", "subject-of-test", "result-type", "recorded-result"],
 "data": [
  ["OC[C@H]1O[C@@H](O[C@H]2[C@H](O)[C@@H](O)C(O)O[C@@H]2CO)[C@H](O)[C@@H](O)[C@H]1O (some centres unmarked)", "α-isomaltosylglucosaccharide-forming enzyme from Bacillus globisporus C11", "Enzymatic action, Enzyme of Strain C11", "−"],
  ["OC[C@H]1O[C@H](O[C@H]2O[C@H](CO)[C@@H](O)[C@H](O)[C@H]2O[C@H]2O[C@H](CO)[C@@H](O)[C@H](O)[C@H]2O)[C@H](O)[C@@H](O)[C@@H]1O", "α-isomaltosylglucosaccharide-forming enzyme from Bacillus globisporus C11", "Enzymatic action, Enzyme of Strain C11", "−"],
  ["OC[C@H]1O[C@H](O[C@H]2O[C@H](CO)[C@@H](O[C@H]3O[C@H](CO)[C@@H](O)[C@H](O)[C@H]3O)[C@H](O)[C@H]2O)[C@H](O)[C@@H](O)[C@@H]1O [Maltosylglucoside, maltosyl glucoside]", "α-isomaltosylglucosaccharide-forming enzyme from Bacillus globisporus C11", "Enzymatic action, Enzyme of Strain C11", "++"],
  ["OC[C@H]1O[C@H](OC[C@H]2OC(O)[C@H](O)[C@@H](O)[C@@H]2O)[C@H](O)[C@@H](O)[C@@H]1O (some centres unmarked)", "α-isomaltosylglucosaccharide-forming enzyme from Bacillus globisporus C11", "Enzymatic action, Enzyme of Strain C11", "−"],
  ["OC[C@H]1O[C@H](O[C@H]2[C@H](O)[C@@H](O)[C@@H](O[C@H]3[C@H](O)[C@@H](O)[C@@H](O[C@H]4[C@H](O)[C@@H](O)C(O)O[C@@H]4CO)O[C@@H]3CO)O[C@@H]2CO)[C@H](O)[C@@H](O)[C@@H]1O (some centres unmarked)", "α-isomaltosylglucosaccharide-forming enzyme from Bacillus globisporus C11", "Enzymatic action, Enzyme of Strain C11", "+++"]
]}

Input "OC[C@H]1O[C@@](CO)(O[C@H]2O[C@H](CO)[C@@H](O[C@H]3O[C@H](CO)[C@@H](O)[C@H](O)[C@H]3O)[C@H](O)[C@H]2O)[C@@H](O)[C@@H]1O" . Output Enzymatic action, Enzyme of Strain C11: +

GET /value?item= "OC[C@H]1O[C@@](CO)(O[C@H]2O[C@H](CO)[C@@H](O)[C@H](O)[C@H]2O)[C@@H](O)[C@@H]1O" &field=Enzymatic action, Enzyme of Strain C11 returns −

Recorded Enzymatic action, Enzyme of Strain C11 (compound OC[C@H]1O[C@H](O[C@H]2C(O)O[C@H](CO)[C@@H](O)[C@@H]2O)[C@H](O)[C@@H](O)[C@@H]1O (some centres unmarked) ): +
